Test system: RAW
Test: Inhibition of 1 ug/ml LPS-stimulated TNFalpha accumulation in RAW 264 cells after 24 hrs
Type: functional, cell-based, Mus musculus
Conditions: Mus musculus, RAW, 24 h
Entries and their IC50 values follow.

| Molecule | IC50 |
| --- | --- |
| COc1ccc(OC)c(C(=O)/C=C/c2ccc(OC/C=C/c3ccccc3)cc2)c1 | > 30 µM |
| COc1ccc(OC)c(C(=O)/C=C/c2ccc(Br)o2)c1 | > 30 µM |
| COc1ccc(OC)c(C(=O)/C=C/c2cccs2)c1 | > 30 µM |
| COc1ccc(OC)c(C(=O)/C=C/c2ccco2)c1 | 4.6 µM |
| COc1ccc(OC)c(C(=O)/C=C/c2ccc(C)s2)c1 | > 30 µM |
| COc1ccc(OC)c(C(=O)/C=C/c2ccc(C)o2)c1 | > 10 µM |
| O=c1c(-c2ccc(O)cc2)coc2cc(O)cc(O)c12 [GENISTEIN] | 18.1 µM |

Cited source for all entries: ChEMBL document CHEMBL1147846
